# credit: the supplement of paper PMC12636428

# System: Saccharomyces cerevisiae
# ASSAY REMARKS: transcriptional activation domain activity (GFP:mCherry ratio, weighted mean of sorted bins, harmonized to initial dataset scale) (arbitrary fluorescence ratio units); higher = stronger transcriptional activation
# CONDITIONS USED: beta-estradiol 1 µM; induction time 4 h
MEASURED ENDPOINT: transcriptional activation domain activity
# respond with the number and nothing more

// below: answered sequences
- CHAIN: "RLEKQGWFAYIKEFRIFLPCLWPTGSIRGKLCLVVLILDLVINRFLRVLTPRQ"
  VAL: 59800
- CHAIN: "IIRLCSYFQRYVDLPIHNIYDRIAAHASTEILFYANALKEDFFRFGLVYRLYA"
  VAL: 59200
- CHAIN: "LRCVGFILYLLLLIGKIMAFKEIDLLQEHQNFWAKVIYNARGSNRSWDWLSMI"
  VAL: 59600
- CHAIN: "MLSSKLNGRSQFICHLCHTGSLLTSVTLIFPFHHTYLHFLGWNLTLLTTVWFF"
  VAL: 60600
- CHAIN: "ALKLLVDKVEDPKKNGPKFLKRAQLVVTGFNSQLKARSQRIGHFVNLLQVYLT"
  VAL: 61600

Now consider a different sequence.
[in] Which measured transcriptional activation domain activity belongs to `PDDHKLLKALVFFLWVFDGLHIALICHAFYLITVTNFGNVLALLTIPRTLPIA` , tested on Saccharomyces cerevisiae?
[out] 58400
